# Lookup of reported self-cleavage kobs at 10000 uM GlcN6P keyed by entry
B1: glmS ribozyme (parent)
chain: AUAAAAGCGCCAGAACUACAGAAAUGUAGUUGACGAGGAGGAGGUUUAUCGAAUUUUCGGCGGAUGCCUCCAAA

- Variants of: B1
- test description: self-cleavage kobs at 10000 uM GlcN6P; higher = faster cleavage; RNA array
- experimental conditions: with glucosamine-6-phosphate
Variants at the floor of the assay were thinned out.
Kindly answer with a numeric value in s⁻¹, unit omitted.

Example results:
AUAAAAGCGCCAGAACUACAGAAAUGUAGUUGACGAGGAGGAGGUUUAUCGAUCUUUCGGCGGAUGACUCCAAA [A53U U54C C67A] | 0.00429
AUAAAAGCGCCGGAACUACAGAAAUGUAGUUGACGAGGAGGAGGUUUAUCGAAUUUUUGGCGGAUGCCUCCAAA [A12G C58U] | 6.35e-05
AUAAAAGCGCCAGAACUACAGAAAUGUAGUUGACGAGGAGGAGGUUUAUCGAAUUUUAGGCGGAUGUCUCCAAA [C58A C67U] | 0.000182
AUAAAAGCGCCAGAACUACAGAAAUGUAAUUGACGAGGAGGAGGUUUAUCGAAUUUUCGGCGGAUUCUUCCAAA [G29A G66U C68U] | 3.63e-05
AUAAAAGCGCCAGAAAUACAGAAAUGUAGUUGACGAGGAGGAGGUUUAUCGAAUUUUAGGCGGAUGCCUCCAAA [C16A C58A] | 9.21e-05

Query: Output self-cleavage kobs at 10000 uM GlcN6P of AUAAAAGCGCCAGAACUACAGAAAUGUAGUUUACGAAGAGGAGGUUUAUCGAAUUUUCGGCGGAUGCCUCCAAA [G32U G37A]
Result: 3.21e-05

Query: Note self-cleavage kobs at 10000 uM GlcN6P for the variant shown: AUAAAAGCGCCAGGACUACAGAAAUGUACUUGACGAGGGGGAGGUUUAUCGAAUUUUCGGCGGAUGCCUCCAAA [A14G G29C A39G]
Result: 0.000412
